assay: molar heat capacity at constant pressure; settings: 110 K; 101.33 kPa; Crystal; relaxation calorimetry
Property Label: molar heat capacity at constant pressure (J/K/mol)

OC[C@@H](O)[C@@H](O)CO [meso-1,2,3,4-butanetetrol] :: 69.28
O[C@H]1[C@H](O)[C@@H](O)[C@H](O)[C@@H](O)[C@H]1O [cis-1,2,3,5-trans-4,6-cyclohexanehexol] :: 79.22
OC[C@@H](O)[C@@H](O)[C@H](O)[C@H](O)CO [D-mannitol] :: 95.83
OC[C@H](O)C(O)[C@@H](O)CO [L-(-)-arabitol] :: 85.55
OC[C@@H](O)C(O)[C@H](O)CO [D-arabitol] :: 85.02
OC[C@@H](O)[C@H](O)[C@@H](O)CO [xylitol] :: 84.01

Provenance of the data: the NIST ThermoML archive (doi:10.1016/j.jct.2017.08.004)
